Hi there, I'd appreciate the recorded IC50 for every entry that follows.
# SUBJECT OF TEST: UniProtKB Q92918
# TEST METHOD NOTES: SLP76 phosphorylation assay (intracellular HPK1 inhibitory activity, p-SLP76 Ser376 sandwich ELISA)
# COND: p-SLP76 IC50(nM), Jurkat, Clone E6-1 cells; 1 h compound pre-incubation, anti-CD3 beads stimulation 20 min; SLP76 phosphorylation at S376
# Sequence (Q92918 whole entry): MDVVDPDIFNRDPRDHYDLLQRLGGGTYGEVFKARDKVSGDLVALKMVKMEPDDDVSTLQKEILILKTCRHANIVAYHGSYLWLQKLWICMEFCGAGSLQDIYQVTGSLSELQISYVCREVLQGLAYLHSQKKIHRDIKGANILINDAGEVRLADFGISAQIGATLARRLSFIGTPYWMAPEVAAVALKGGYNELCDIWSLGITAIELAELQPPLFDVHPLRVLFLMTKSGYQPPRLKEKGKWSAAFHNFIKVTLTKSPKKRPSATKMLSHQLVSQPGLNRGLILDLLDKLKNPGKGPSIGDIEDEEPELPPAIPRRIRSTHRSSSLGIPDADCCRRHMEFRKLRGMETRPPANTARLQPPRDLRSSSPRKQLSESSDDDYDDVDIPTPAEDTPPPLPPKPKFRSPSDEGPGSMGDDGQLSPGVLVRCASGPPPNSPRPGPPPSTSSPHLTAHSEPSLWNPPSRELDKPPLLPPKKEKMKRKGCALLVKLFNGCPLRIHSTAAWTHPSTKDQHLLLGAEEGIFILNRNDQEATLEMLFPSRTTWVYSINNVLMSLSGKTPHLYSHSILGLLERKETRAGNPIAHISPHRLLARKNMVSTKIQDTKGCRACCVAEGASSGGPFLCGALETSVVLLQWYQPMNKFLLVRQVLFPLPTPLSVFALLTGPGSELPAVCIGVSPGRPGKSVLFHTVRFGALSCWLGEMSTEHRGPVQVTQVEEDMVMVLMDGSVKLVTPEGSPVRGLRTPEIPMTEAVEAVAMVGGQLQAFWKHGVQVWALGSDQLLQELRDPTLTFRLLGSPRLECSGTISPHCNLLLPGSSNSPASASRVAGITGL
Answers are plain numbers, in nM.

COC(=O)N1CCc2c(cc(-c3cnc4[nH]cc(C)c4c3)cc2[C@@H]2CCCN2)C1; 297

API: the following record is the query input.
Query: Look up IC50 for this compound: Cc1c[nH]c2ncc(-c3cc4c(c([C@@H]5CCCN5)c3)CN(C(=O)c3cc(C)n(C)n3)CC4)cc12
Response: 269

###

# SUBJECT OF TEST: UniProt:Q92918
# TEST METHOD NOTES: SLP76 phosphorylation assay (intracellular HPK1 inhibitory activity, p-SLP76 Ser376 sandwich ELISA)
# COND: p-SLP76 IC50(nM), Jurkat, Clone E6-1 cells; 1 h compound pre-incubation, anti-CD3 beads stimulation 20 min; SLP76 phosphorylation at S376
Where a name gives a salt, the structure may show the parent alone.
RECORDED ENDPOINT: IC50
Number first, unit second: that is the form wanted.

Here's what some known entries look like.
Cc1c[nH]c2ncc(-c3cc4c(c([C@@H]5CCCN5)c3)CN(C(=O)N3C5CCC3COC5)CC4)cc12; 43.1 nM
Cc1cc(C(=O)N2CCc3cc(-c4cnc5[nH]cc(C)c5c4)cc([C@@H]4CCCN4)c3C2)ncn1; 174 nM
Cc1c[nH]c2ncc(-c3cc4c(c([C@@H]5CCCN5)c3)CN(C(=O)c3ccnc(C(C)(C)O)c3)CC4)cc12; 150 nM
Cc1c[nH]c2ncc(-c3cc4c(c([C@@H]5CCCN5)c3)CN(C(=O)N3CCO[C@@H](C)C3)CC4)cc12; 135 nM

Fill in IC50 for each of the 6 compounds listed.
1. c1cncc(-c2c[nH]c3ncc(-c4cc5c(c([C@@H]6CCCN6)c4)COCC5)cc23)c1
2. Cc1c[nH]c2ncc(-c3cc(C4CCCN4)c4cnccc4c3)cc12 (centres unmarked) [Compound Z3, formate]
3. Cc1cc(N2CCc3cc(-c4cnc5[nH]cc(C)c5c4)cc([C@@H]4CCCN4)c3C2)cc(C)n1
4. CCN(CC)Cc1cc(-c2cnc3[nH]cc(C)c3c2)cc2c1COCC2
5. Cc1ncc(C(=O)N2CCc3cc(-c4cnc5[nH]cc(C)c5c4)cc([C@@H]4CCCN4)c3C2)cn1
6. N#CCc1c[nH]c2ncc(-c3cc4c(c(C5CCCN5)c3)COCC4)cc12 (centres unmarked)

Response:
["117 nM", "853 nM", "177 nM", "2840 nM", "90.7 nM", "163 nM"]

For every item in the list below, what is its measured IC50?
1. Cc1c[nH]c2ncc(-c3cc4c(c(CN5CC6CCC(C5)N6C)c3)COCC4)cc12
2. Cc1c[nH]c2ncc(-c3cc([C@H]4CCCN4)c4cnccc4c3)cc12 (single isomer, unassigned)

Response:
1: 10000 nM; 2: 604 nM

State the recorded IC50 for every item in the following list.
1. CN(C)C(=O)c1ccc(-c2c[nH]c3ncc(-c4cc5c(c([C@@H]6CCCN6)c4)COCC5)cc23)cn1
2. Cc1cn(C2CC2)nc1C(=O)N1CCc2cc(-c3cnc4[nH]cc(C)c4c3)cc([C@@H]3CCCN3)c2C1 [Compound Z347]
3. Cc1c[nH]c2ncc(-c3cc4c(c([C@@H]5CCCN5)c3)CCN(C(=O)[C@@](C)(O)C(F)(F)F)C4)cc12
4. Cc1ncncc1C(=O)N1CCc2cc(-c3cnc4[nH]cc(C)c4c3)cc([C@@H]3CCCN3)c2C1
5. Cc1cc(N2CCc3cc(-c4cnc5[nH]cc(C)c5c4)cc([C@@H]4CCCN4)c3C2)ccn1 [Compound Z320, formate]
6. CNCc1cc(-c2cnc3[nH]cc(C)c3c2)cc2c1COCC2
7. Cc1c[nH]c2ncc(-c3cc4c(c([C@@H]5CCCN5)c3)COCC4)nc12
8. CC(=O)N1CCc2cc(-c3cnc4[nH]cc(C)c4c3)cc(C3CCCN3)c2C1 (centres unmarked)

Response:
["401 nM", "319 nM", "323 nM", "286 nM", "121 nM", "668 nM", "133 nM", "237 nM"]

Please give IC50, item by item, for the list that follows.
1. COC1(C(=O)N2CCc3cc(-c4cnc5[nH]cc(C)c5c4)cc([C@@H]4CCCN4)c3C2)CC1
2. Nc1ncc(-c2cc3c(c([C@@H]4CCCN4)c2)COCC3)cc1-c1cn[nH]c1 (single isomer, unassigned)

Response:
["119 nM", "235 nM"]

###

Kindly state IC50 for each of the entries shown.
# SUBJECT OF TEST: HPK1 (Homo sapiens)
# TEST METHOD NOTES: SLP76 phosphorylation assay (intracellular HPK1 inhibitory activity, p-SLP76 Ser376 sandwich ELISA)
# COND: p-SLP76 IC50(nM), Jurkat, Clone E6-1 cells; 1 h compound pre-incubation, anti-CD3 beads stimulation 20 min; SLP76 phosphorylation at S376
Answers are plain numbers, in nM.

For orientation, consider the following solved cases.
CCN1Cc2c(cc(-c3cnc4[nH]cc(C)c4c3)cc2[C@@H]2CCCN2)C1=O; 3810
Cc1nn(C2CC2)cc1C(=O)N1CCc2cc(-c3cnc4[nH]cc(C)c4c3)cc([C@@H]3CCCN3)c2C1; 492
Cc1c[nH]c2ncc(-c3cc4c(c(CNCC5CC5)c3)COCC4)cc12; 305
Cc1c[nH]c2ncc(-c3cc4c(c([C@@H]5CCCN5)c3)CN(C(=O)c3ccccn3)CC4)cc12; 463

Provide each entry's IC50 from the list below.
1. Cc1c[nH]c2ncc(-c3cc4c(c([C@@H]5CCCN5)c3)CN(C(=O)C3CC3)CC4)cc12
2. C[C@H](C#N)c1c[nH]c2ncc(-c3cc4c(c([C@@H]5CCCN5)c3)COCC4)cc12 (single isomer, unassigned)
3. Cc1c[nH]c2ncc(-c3cc4c(c([C@@H]5CCCN5)c3)CN(C(=O)C3CCCCC3)CC4)cc12
4. CN(C)Cc1cc(-c2cnc3[nH]cc(Cl)c3c2)cc2c1COCC2
5. Cc1c[nH]c2ncc(-c3cc4c(c(CN(C)C)c3)C(=O)N(C)CC4)cc12
6. Cc1cc(C(=O)N2CCc3cc(-c4cnc5[nH]cc(C)c5c4)cc([C@@H]4CCCN4)c3C2)ccn1
7. Cc1c[nH]c2ncc(-c3cc4c(c([C@@H]5CCCN5)c3)CN(C(=O)[C@@H](O)c3ccccc3)CC4)cc12
8. Cc1c[nH]c2ncc(-c3cc4c(c([C@@H]5CCCN5)c3)CN(S(=O)(=O)C3CC3)CC4)cc12

Response:
[179, 126, 301, 520, 3760, 318, 272, 131]

###

# SUBJECT OF TEST: HPK1 (Homo sapiens)
# TEST METHOD NOTES: HPK1 kinase activity assay (ADP-Glo)
# COND: HPK1 Kinase activity IC50 (nM), 1 nM HPK1, 10 μM ATP, 0.1 μg/μL MBP
RECORDED ENDPOINT: IC50 (nM)
Give bare numbers, in nM.

Recorded IC50, per entry:
Cc1c[nH]c2ncc(-c3cc4c(c(CN(C)C)c3)C(=O)N(C)CC4)cc12; 34.2
Cc1c[nH]c2ncc(-c3cc4c(c([C@@H]5CCCN5)c3)CN(S(=O)(=O)C3CC3)CC4)cc12; 0.49
N#CCc1c[nH]c2ncc(-c3cc4c(c([C@H]5CCCN5)c3)COCC4)cc12 (single isomer, unassigned); 42.7

Field: next compound
Query: State the recorded IC50 for this entry: Cc1c[nH]c2ncc(-c3cc4c(c([C@@H]5CCCN5)c3)COC3(CC3)C4)cc12
Response: 0.46

###

Please respond with reported log10(IC50) for every item in the list.
# SUBJECT OF TEST: UniProt:Q92918
# Sequence (Q92918 1-346 limits assumed): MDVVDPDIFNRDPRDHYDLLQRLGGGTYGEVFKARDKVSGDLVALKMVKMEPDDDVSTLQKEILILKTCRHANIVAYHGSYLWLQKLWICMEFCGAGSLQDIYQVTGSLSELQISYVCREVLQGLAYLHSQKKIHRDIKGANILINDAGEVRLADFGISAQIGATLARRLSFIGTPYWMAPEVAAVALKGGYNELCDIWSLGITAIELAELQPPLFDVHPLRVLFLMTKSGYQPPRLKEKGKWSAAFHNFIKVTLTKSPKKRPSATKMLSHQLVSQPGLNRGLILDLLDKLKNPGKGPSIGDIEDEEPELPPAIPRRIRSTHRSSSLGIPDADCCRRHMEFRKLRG
# TEST METHOD NOTES: HPK1 kinase activity assay (ADP-Glo)
# COND: HPK1 Kinase activity IC50 (nM), 1 nM HPK1, 10 μM ATP, 0.1 μg/μL MBP
Where a name gives a salt, the structure may show the parent alone.
Could you please treat all values as log10 of IC50 in nM?

Please state log10(IC50) for every compound in the list that follows.
1. Cc1cc(C(=O)N2Cc3cc(-c4cnc5[nH]cc(C)c5c4)cc([C@@H]4CCCN4)c3C2)cc(C)n1 [Compound Z262, hydrochloride]
2. CC(=O)N1Cc2cc(-c3cnc4[nH]cc(C)c4c3)cc([C@@H]3CCCN3)c2C1
3. Cc1c[nH]c2ncc(-c3cc4c(c([C@@H]5CCCN5)c3)CN(C(=O)N3CCO[C@@H](C)C3)CC4)cc12
4. CC(=O)N1CCc2c(cc(-c3cnc4[nH]cc(C)c4c3)cc2[C@@H]2CCCN2)C1
5. Cc1c[nH]c2ncc(-c3cc4c(c([C@@H]5CCCN5)c3)CN(C(=O)N3CCOC(C)(C)C3)CC4)cc12

Response:
1. 0.24
2. 0.12
3. -0.57
4. -0.41
5. -0.66

Below are some compounds; for each one, tell me its log10(IC50).
1. Cc1c[nH]c2ncc(-c3cc4c(c([C@@H]5CCCN5)c3)CCN(S(C)(=O)=O)C4)cc12
2. COCC(=O)N1CCc2cc(-c3cnc4[nH]cc(C(C)C)c4c3)cc([C@@H]3CCCN3)c2C1
3. Cc1c[nH]c2ncc(-c3cc4c(c([C@@H]5COCCN5)c3)CN(C(=O)[C@](C)(O)C(F)(F)F)CC4)cc12 (single isomer, unassigned)
4. Cc1c[nH]c2ncc(-c3cc4c(c([C@@H]5CCCN5)c3)CN(C(=O)c3ccn(C)n3)CC4)cc12
5. Cc1c[nH]c2ncc(-c3cc4c(c([C@@H]5CCCN5)c3)CCN(C(=O)CC3CCOCC3)C4)cc12
6. COc1cc(C(=O)N2CCc3cc(-c4cnc5[nH]cc(C)c5c4)cc([C@@H]4CCCN4)c3C2)ccn1
7. Cc1c[nH]c2ncc(-c3cc4c(c([C@H]5CCCN5)c3)COCC4)cc12 (single isomer, unassigned)

Response:
[-0.42, -0.49, -0.24, 0.20, -0.25, -0.29, 2.08]

Query: Reported log10(IC50), compound Cc1c[nH]c2ncc(-c3cc4c(c(C5CCN5)c3)COCC4)cc12 (centres unmarked) : ____
Response: 1.31
